Assay: Neutral red uptake assay, L-929 cell line (primary screening)
Type: cell-based, mouse
Condition Summary: mouse, L-929 cells; L-929, 250 µM, p < 0,05
Assay Endpoint: viability at 250 µM (%)
All answers are understood in %, so give the number only.

// viability at 250 µM value for CCOc1ccc(N=Cc2c(C)nc(-c3ccccc3)nc2Nc2ccc(F)cc2)cc1 : 115

---

System: AGS
Assay: Neutral red uptake assay, AGS
Assay type: cell-based
Condition Summary: Homo sapiens, 72 h exposure
Assay Endpoint: IC50 (µM)
All answers are understood in µM, so give the number only.

// IC50 value for CCOc1ccc(N=Cc2c(C)nc(-c3ccccc3)nc2Nc2ccc(F)cc2)cc1 : 50.2

Hey, just so you know, these numbers are from paper PMC8071423.
